# Tgt: Cellular tumor antigen p53 (Homo sapiens) (UniProt P04637)
# Sequence (P04637 whole entry, looked up): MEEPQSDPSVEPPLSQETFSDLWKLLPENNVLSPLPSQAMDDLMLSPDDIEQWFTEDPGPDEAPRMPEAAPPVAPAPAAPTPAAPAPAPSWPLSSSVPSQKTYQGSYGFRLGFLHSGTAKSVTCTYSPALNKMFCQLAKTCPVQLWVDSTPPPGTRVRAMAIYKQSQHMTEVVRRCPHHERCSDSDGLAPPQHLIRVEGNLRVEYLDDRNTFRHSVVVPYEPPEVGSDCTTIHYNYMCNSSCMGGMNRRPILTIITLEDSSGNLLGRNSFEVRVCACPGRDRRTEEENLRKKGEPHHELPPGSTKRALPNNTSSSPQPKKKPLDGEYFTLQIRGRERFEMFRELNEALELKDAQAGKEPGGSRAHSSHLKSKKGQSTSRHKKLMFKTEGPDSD
# Experiment: TOX21_p53_BLA_p2_ratio: Tox21 HCT-116 p53 Agonism Beta-lactamase Assay, Ratio, Phase 2 (AID 2283592)
Records with an inconclusive call do not appear. The source made the active and inactive calls. Rule for the calls: active = hit-call score of the fitted dose curve at least 0.9, where 1 is the maximum; inconclusive = response in the unintended direction; inactive = score below 0.9.
The reply should be one of these categories: active, inactive

Example results:
| Compound | Group |
| --- | --- |
| OC1(c2ccc(Cl)c(C(F)(F)F)c2)CCN(CCCC(c2ccc(F)cc2)c2ccc(F)cc2)CC1 | active |
| CCCCCCCCS(=O)C(C)Cc1ccc2c(c1)OCO2 (centres undefined) | active |
| CC(C)NCC(O)COc1cccc2[nH]ccc12 (centres undefined) | inactive |
| Cc1ccccc1C#N | inactive |

In this assay, the call recorded for O=C(O[C@H]1CN2CCC1CC2)N1CCc2ccccc2[C@@H]1c1ccccc1 was what?
inactive

In this assay, the call recorded for CC(S)C(=O)NCC(=O)O (centres undefined) was what?
inactive

In this assay, the call recorded for CC[C@H](NC(C)C)[C@H](O)c1ccc(O)c2[nH]c(=O)ccc12 was what?
inactive

In this assay, the call recorded for FC(F)(F)C(F)(F)C(F)(F)C(F)(F)C(F)(F)C(F)(F)C(F)(F)C(F)(F)Br was what?
inactive

In this assay, the call recorded for O=C1Nc2ccc([N+](=O)[O-])cc2C1=O was what?
active

In this assay, the call recorded for CCCCCCCCCCCCCCC(=O)O was what?
inactive

These entries and their values trace back to PubChem BioAssay (EPA / NIEHS).
